# cond: in n-butanol, 321.2 K
measurement name: solubility (mole fraction)
Give a plain numeric answer without units written out.

Which solubility (mole fraction) reading was recorded for the molecule "C[N+](C)(C)CCO.[Cl-]" ?
0.049

* * *

# cond: in n-propanol, 285.2 K
measurement name: solubility (mole fraction)

Which solubility (mole fraction) reading was recorded for the molecule "CC(=O)[O-].C[N+](C)(C)CCO" ?
0.316

* * *

# cond: in n-butanol, 327.5 K
measurement name: solubility (mole fraction)
Give a plain numeric answer without units written out.

Which solubility (mole fraction) reading was recorded for the compound "C[N+](C)(C)CCOC(=O)CCCC(=O)O.[Cl-]" ?
0.0025

* * *

# cond: in n-propanol, 316.5 K
measurement name: solubility (mole fraction)
Give a plain numeric answer without units written out.

Which solubility (mole fraction) reading was recorded for the compound "C[N+](C)(C)CCO.[Cl-]" ?
0.073
